Molecular target: T1, human CD1d expressed on HEK-293 cells (human, UniProt P15813 20-335; P61769 21-119)
T1 construct: also called HEK - CD1d
Assay: flow cytometry, HEK-293 cells, 100 µg/ml antibody
Overview of reported Fluorescence Intensity Geomean (normalized to background) across a group of binders:
Quantity Name: Fluorescence Intensity Geomean (normalized to background) (fold over background)

- Binder: "116 (VR12117) (antibody, V domains shown, also called OX116) VH: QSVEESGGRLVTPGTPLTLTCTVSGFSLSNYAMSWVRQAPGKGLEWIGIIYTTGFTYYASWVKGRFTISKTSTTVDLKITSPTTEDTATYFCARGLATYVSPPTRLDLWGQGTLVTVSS VL: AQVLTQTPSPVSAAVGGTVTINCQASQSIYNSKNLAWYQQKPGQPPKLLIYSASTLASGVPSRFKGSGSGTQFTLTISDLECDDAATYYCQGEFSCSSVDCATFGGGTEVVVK"
  Display Unit: "fold over background"
  Reported Measurement: 1
- Binder: "111 (VR12113) (antibody, V domains shown, also called OX111) VH: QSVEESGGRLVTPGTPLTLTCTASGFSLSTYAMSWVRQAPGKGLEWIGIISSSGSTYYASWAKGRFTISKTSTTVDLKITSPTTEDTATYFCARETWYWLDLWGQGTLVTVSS VL: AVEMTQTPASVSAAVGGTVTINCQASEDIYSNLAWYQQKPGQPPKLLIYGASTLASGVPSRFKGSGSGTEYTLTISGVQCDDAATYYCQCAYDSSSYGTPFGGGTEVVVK"
  Display Unit: "fold over background"
  Reported Measurement: 1.1
- Binder: "110 (VR12112) (antibody, V domains shown, also called OX110; antibody 110) VH: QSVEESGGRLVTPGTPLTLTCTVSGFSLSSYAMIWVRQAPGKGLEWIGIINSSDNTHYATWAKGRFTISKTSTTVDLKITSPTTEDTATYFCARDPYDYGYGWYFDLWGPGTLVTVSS VL: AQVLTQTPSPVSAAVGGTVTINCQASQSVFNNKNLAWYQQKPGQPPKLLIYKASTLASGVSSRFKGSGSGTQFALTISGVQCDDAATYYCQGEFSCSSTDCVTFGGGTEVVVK"
  Display Unit: "fold over background"
  Reported Measurement: 1.1
- Binder: "77A (VR11851) (antibody, V domains shown, also called OX77a; antibody 77a) VH: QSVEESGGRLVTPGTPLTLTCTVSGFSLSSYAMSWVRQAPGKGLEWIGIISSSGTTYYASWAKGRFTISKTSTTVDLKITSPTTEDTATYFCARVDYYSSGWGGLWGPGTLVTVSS VL: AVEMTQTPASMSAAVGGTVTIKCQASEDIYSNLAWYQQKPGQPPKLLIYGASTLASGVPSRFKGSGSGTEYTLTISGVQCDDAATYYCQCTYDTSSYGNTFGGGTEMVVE"
  Display Unit: "fold over background"
  Reported Measurement: 1

The reported measurements were obtained from patent US20250289893A1.
